system: Human Peripheral Blood Mononuclear Cells (PBMC) or Enriched Adherent Mononuclear Cells; assay: Cell assay: IL-1β assay with human PBMC or enriched adherent mononuclear cells; type: cell-based; details: Homo sapiens, PBMC, Example 4 table; LPS-stimulated cells, mature IL-1β in supernatant by ELISA
Reported IC50 values for a set of compounds

These solved cases illustrate the format of a correct answer.
1. O=C[C@H](CC(=O)O)NC(=O)Cn1cccc(NC(=O)CCc2ccccc2)c1=O [Compound 54g] | > 20 µM
2. C[C@H](NC(=O)c1cnc(CCc2ccc(C(F)(F)F)cc2)[nH]1)C(=O)N[C@H](C=O)CC(=O)O [Compound 33b] | > 30 µM

In: Give the measured IC50 of O=C[C@H](CC(=O)O)NC(=O)Cn1c(CCc2ccccc2)ccc(NC(=O)CCc2ccccc2)c1=O [Compound 54c] .
Out: > 19 µM

Hello, the source for this data is patent US20110015371A1, in case you need it.
